B1: RSPH3 (parent)
chain: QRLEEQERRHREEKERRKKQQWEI

- Variants of: B1
- EXPERIMENT_SUMMARY: protein stability index of a GFP-peptide fusion (GPS, HEK-293T) (PSI 1-6); higher = more stable;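 note: lentivirally expressed fusions sorted by FACS into six bins by GFP to DsRed ratio, PSI derived from sequencing read proportions per bin multiplied by bin number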
- TEST_SETTINGS: c terminus: a fixed tail appended
ASSAY_READOUT: protein stability index

> print(dat)
    mutation.id  observed.value
 1          E4F            4.47
 2          Q6F               4
 3          Q1S            4.66
 4          E7V            4.57
 5          R8L            3.69
 6          R9L            4.81
 7         E15W            3.18
 8         K19R            4.78
 9         R16E            5.23
10         R17M            4.77
11         R11Q            4.67
12          E5I            4.62
13         K19L            4.59
14         R17W            4.02
15         R11D            4.93
16         E13M            3.99
17         K18D            4.59
18         Q21P             4.6
19         R11F            4.64
20          R8E            4.95
21          R9W            4.47
22         R16W            4.02
23          R9H            5.33
24          Q6Y            4.48
